Hello, the source for this data is patent US10927123B2, in case you need it.

Measured log10 IC50, listed per entry for reference.
System tested: Beta-3 Adrenergic Receptor (Homo sapiens (Human), UniProt P13945)
Sequence (P13945 whole entry, species assumed): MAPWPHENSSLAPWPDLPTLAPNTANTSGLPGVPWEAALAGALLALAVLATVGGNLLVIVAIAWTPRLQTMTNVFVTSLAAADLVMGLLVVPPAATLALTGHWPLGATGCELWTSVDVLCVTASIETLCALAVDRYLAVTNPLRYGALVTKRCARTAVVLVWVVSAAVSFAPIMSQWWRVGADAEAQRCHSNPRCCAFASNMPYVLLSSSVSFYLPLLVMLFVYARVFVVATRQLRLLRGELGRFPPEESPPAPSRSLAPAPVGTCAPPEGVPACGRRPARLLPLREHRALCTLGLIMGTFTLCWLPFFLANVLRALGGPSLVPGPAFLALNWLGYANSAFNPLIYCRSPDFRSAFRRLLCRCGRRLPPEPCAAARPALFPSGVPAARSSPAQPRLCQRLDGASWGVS
Protocol summary: HTRF cAMP antagonist assay (IC50 determination)
Test conditions: CHO-K1 cells stably expressing recombinant receptor; antagonism of isoproterenol at EC90; cAMP readout
The common logarithm of IC50 in µM is what is listed.

Would you kindly share the measured log10 IC50 for Cc1cc(S(=O)(=O)N2CCC3(CC2)C[C@@H](NC[C@H](O)COc2cccc(S(=O)(=O)C4(CO)CC4)c2)CO3)ccc1Br [Compound 194] ?
-1.87

What do we get for CCCS(=O)(=O)c1cccc(OC[C@@H](O)CN[C@H]2COC3(CCN(S(=O)(=O)c4ccc5ncccc5c4)CC3)C2)c1 [Compound 115] ?
-0.92

What do we get for C[C@H]1CN(C)c2cc(S(=O)(=O)N3CCC4(CC3)C[C@H](NC[C@H](O)COc3cccc(S(=O)(=O)C5CC5)c3)CO4)cnc2O1 [Compound 277] ?
-1.78

What do we get for Cc1c(S(=O)(=O)N2CCC3(CC2)C[C@@H](NC[C@H](O)COc2cccc(S(=O)(=O)CC(N)=O)c2)CO3)cnc2c1N(C)CCO2 [Compound 276] ?
0.26
